Target: human PPARδ-LBD (Homo sapiens, UniProt Q03181)
Construct: PPARδ-LBD (AAs 170–441); made in house
Test: TR-FRET coactivator recruitment assay, PPARδ-LBD
Type: biochemical
Conditions: evaluated based on EC50 values; PGC, PGC1α; SRC, SRC1; TRAP, TRAP220
MEASUREMENT_NAME: Approximate potency order in the recruitment of four coactivators, PPARδ

CCc1ccc(CCOc2ccc(CC3SC(=O)NC3=O)cc2)nc1 (stereo not shown) : No activation
CC(C)(Oc1ccc(C(=O)c2ccc(Cl)cc2)cc1)C(=O)O : No activation

###

Biological target: human PPARδ-LBD (Homo sapiens)
Construct: PPARδ-LBD (AAs 170–441); made in house
Sequence (Q03181 170-441): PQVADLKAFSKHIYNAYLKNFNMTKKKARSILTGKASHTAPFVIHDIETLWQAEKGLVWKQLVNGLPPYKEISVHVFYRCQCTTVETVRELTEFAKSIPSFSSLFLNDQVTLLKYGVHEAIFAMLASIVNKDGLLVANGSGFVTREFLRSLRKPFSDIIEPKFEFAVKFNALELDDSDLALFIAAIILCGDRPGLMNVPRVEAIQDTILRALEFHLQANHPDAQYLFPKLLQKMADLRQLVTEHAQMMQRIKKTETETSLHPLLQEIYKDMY
Assay: TR-FRET coactivator recruitment assay, PPARδ-LBD
Type: biochemical
Conditions: read-out: PPARδ PGC1α % of GW501516 max response
MEASUREMENT_NAME: Emax (%)

CCc1ccc(CCOc2ccc(CC3SC(=O)NC3=O)cc2)nc1 (stereo not drawn) [Pioglitazone, pioglitazone] : 4.53

[1] CCO[C@@H](Cc1ccc(OCCn2c(C)ccc2-c2ccc(SC)cc2)cc1)C(=O)O [Saroglitazar, saroglitazar]
[2] O=C(O)CCCc1cc2cc(Cl)ccc2n1S(=O)(=O)c1ccc2ncsc2c1 [Lanifibranor, lanifibranor]
Input line: Parameter check: reported Emax is higher for which label, 1 or 2 ? In your reply, give the label of the chosen option.
Output line: 2
